Tested on: Vero E6 infected with SARS-CoV-2
Assay: inhibition of SARS-CoV-2 cytopathic effect; higher = more antiviral protection, active = above 15
Conditions: 8.33 nM; 48 h
readout.label: inhibition of SARS-CoV-2 cytopathic effect

Query: Answer with reported inhibition of SARS-CoV-2 cytopathic effect of OCCN1CCN(CCCN2c3ccccc3Sc3ccc(Cl)cc32)CC1 [perphenazine]
Response: 1.94% (inactive)

Query: Answer with reported inhibition of SARS-CoV-2 cytopathic effect of `CCS(=O)(=O)N1CCN(c2ccc(Nc3ncc(C(N)=O)c(NC4CC4)n3)cc2)CC1`
Response: -0.99% (inactive)

Query: Answer with reported inhibition of SARS-CoV-2 cytopathic effect of `O=C(Nc1cnc(Cl)nc1)c1ccc(F)c(F)c1`
Response: 1.13% (inactive)

Query: Answer with reported inhibition of SARS-CoV-2 cytopathic effect of NC(=O)NCCC[C@H](N)C(=O)O [L-citrulline]
Response: -1.99% (inactive)

Query: Answer with reported inhibition of SARS-CoV-2 cytopathic effect of Cc1ccc(Nc2c(F)cccc2Cl)c(CC(=O)O)c1 [lumiracoxib]
Response: -0.84% (inactive)
